Just for reference, ChEMBL document CHEMBL3407345 is where these values come from.

# system name: Tumor necrosis factor receptor superfamily member 1A (Homo sapiens, UniProt P19438)
# Sequence (P19438 whole entry): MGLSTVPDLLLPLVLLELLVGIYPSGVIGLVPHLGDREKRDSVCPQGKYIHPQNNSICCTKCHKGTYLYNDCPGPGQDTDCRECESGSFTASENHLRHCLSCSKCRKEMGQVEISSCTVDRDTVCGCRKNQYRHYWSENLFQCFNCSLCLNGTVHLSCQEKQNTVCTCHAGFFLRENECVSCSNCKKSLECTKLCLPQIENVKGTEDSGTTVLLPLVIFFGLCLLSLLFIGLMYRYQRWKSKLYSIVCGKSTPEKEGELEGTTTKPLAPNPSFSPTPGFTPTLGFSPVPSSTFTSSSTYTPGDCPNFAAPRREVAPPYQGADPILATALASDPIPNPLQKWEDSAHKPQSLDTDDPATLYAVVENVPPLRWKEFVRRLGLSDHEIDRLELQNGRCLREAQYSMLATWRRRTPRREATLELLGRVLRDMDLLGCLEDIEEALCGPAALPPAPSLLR
value type: pIC50
Numbers only, as −log10 of the molar value.

Item: `Cc1cc2occ(CN(C)CCN(C)Cc3cn(-c4cccc(C(F)(F)F)c4)c4ccccc34)c(=O)c2cc1C` | pIC50: 4.66

###

# Tested on: PBMC
# assay procedure: Anti-inflammatory activity in human PBMC assessed as inhibition of LPS-stimulated TNFalpha production incubated for 24 hrs followed by further stimulation with LPS during last 4 hrs by ELISA method
# Type: functional, cell-based
value type: IC50 (µM)
Numbers only, in µM.

Item: `COc1ccc2c(c1)[nH]c1c2cc[n+]2nc(C)c(C)cc12.[Br-]` | IC50: 3.91
